Each entry below lists one item and its recorded DC50 value.
# Tgt: Ikaros (Homo sapiens, UniProt Q13422+Q96SW2)
# Construct: endogenous in cells; host or cells: Mino, Rec-1
# Sequence (Q13422 whole entry): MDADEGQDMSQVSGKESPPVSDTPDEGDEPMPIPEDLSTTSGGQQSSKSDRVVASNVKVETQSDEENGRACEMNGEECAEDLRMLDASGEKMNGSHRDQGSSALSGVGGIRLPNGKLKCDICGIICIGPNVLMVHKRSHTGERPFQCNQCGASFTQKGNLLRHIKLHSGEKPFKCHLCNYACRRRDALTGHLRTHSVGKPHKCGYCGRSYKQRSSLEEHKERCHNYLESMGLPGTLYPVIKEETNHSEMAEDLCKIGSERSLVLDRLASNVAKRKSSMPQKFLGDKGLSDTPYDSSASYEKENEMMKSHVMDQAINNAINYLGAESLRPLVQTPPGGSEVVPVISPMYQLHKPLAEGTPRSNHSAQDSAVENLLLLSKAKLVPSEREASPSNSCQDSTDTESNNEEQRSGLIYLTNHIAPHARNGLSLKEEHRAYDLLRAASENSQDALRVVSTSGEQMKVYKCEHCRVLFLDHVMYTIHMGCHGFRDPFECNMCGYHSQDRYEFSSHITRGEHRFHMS
# Sequence (Q96SW2 whole entry): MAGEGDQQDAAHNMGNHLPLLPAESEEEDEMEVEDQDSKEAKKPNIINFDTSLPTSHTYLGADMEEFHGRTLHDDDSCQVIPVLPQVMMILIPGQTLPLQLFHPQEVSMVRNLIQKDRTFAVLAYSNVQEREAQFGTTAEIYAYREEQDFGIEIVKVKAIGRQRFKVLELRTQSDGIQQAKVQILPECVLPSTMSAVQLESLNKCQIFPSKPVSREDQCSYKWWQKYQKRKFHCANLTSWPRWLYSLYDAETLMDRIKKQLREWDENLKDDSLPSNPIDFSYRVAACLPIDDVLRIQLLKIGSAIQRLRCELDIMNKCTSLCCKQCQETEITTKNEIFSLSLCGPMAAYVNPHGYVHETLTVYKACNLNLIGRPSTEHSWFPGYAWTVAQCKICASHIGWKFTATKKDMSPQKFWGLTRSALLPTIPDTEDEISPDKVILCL
# Sequence (Q16531 whole entry partner): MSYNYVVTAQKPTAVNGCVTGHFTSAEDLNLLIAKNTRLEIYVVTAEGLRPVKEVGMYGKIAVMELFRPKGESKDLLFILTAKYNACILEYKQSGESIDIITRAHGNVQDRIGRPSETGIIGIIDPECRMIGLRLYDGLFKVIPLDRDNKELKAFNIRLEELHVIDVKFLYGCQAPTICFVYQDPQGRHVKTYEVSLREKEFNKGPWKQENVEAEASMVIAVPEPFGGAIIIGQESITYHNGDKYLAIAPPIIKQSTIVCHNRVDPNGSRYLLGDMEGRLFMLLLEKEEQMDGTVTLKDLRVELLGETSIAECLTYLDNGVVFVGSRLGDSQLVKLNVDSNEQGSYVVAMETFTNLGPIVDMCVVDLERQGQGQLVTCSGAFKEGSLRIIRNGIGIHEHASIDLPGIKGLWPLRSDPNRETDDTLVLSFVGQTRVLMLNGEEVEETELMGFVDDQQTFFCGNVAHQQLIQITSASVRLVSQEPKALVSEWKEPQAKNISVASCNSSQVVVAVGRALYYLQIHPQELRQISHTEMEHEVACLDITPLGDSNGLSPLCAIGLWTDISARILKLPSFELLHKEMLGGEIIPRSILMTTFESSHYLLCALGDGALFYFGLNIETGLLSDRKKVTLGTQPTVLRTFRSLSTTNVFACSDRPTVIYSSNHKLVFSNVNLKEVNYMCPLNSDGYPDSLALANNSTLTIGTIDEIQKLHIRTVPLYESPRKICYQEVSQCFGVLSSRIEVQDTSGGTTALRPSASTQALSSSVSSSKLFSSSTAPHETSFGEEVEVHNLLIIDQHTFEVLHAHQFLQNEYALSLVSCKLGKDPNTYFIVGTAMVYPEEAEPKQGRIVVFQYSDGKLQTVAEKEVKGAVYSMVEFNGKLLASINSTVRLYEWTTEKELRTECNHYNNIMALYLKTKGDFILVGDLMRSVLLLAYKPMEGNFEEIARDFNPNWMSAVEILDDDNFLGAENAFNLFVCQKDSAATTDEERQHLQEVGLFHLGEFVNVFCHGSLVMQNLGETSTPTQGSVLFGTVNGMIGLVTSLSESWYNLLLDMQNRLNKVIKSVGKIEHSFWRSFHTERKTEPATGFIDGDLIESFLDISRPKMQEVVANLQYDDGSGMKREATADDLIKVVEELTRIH
# Assay: Ikaros degradation in Mantle Cell Lymphoma lines (flow cytometry)
# Assay type: cell-based
# Protocol Conditions: Rec-1 cells, treatment time 24 h
# unit: nM | format: bare number

Sample records with DC50:
[
  {
    "Molecule": "NC(=O)c1ncc(N2CCCCC2)nc1Nc1ccc(C2CCN(C[C@@H]3CCN(c4ccc5c(c4)C(=O)N(C4CCC(=O)NC4=O)C5=O)C3)CC2)cc1 (some centres unmarked)",
    "DC50 (nM)": 61
  },
  {
    "Molecule": "CN1CCN([C@@H]2CCCN(c3cnc(C(N)=O)c(Nc4ccc(C5CCN(C(=O)CCOCCNc6cccc7c6C(=O)N(C6CCC(=O)NC6=O)C7=O)CC5)cc4)n3)C2)C1=O (some centres unmarked)",
    "DC50 (nM)": 63
  },
  {
    "Molecule": "CN1CCN([C@@H]2CCCN(c3cnc(C(N)=O)c(Nc4ccc(C5CCN(C[C@H]6CCN(c7ccc8c(c7)C(=O)N(C7CCC(=O)NC7=O)C8=O)C6)CC5)cc4)n3)C2)C1=O (some centres unmarked)",
    "DC50 (nM)": 72
  }
]

# evaluate next
Looking up CN1CCN([C@@H]2CCCN(c3cnc(C(N)=O)c(Nc4ccc5c(c4)CCN(C4CN(c6ccc7c(c6)C(=O)N(C6CCC(=O)NC6=O)C7=O)C4)C5)n3)C2)C1=O (some centres unmarked) , I found its DC50 recorded as 1000

###

# Assay: Compound plasma exposure in cyno DRF study
# Assay type: in vivo
# Protocol Conditions: cynomolgus monkey, po, 10 mg/kg, 10 mg/kg PO, 1 day of dosing
Catalogue of Cmax readings, one per entry.
Your answer should be a plain number; it is taken to be in nM.

[
  {
    "Compound": "NC(=O)c1ncc(N2CCCCC2)nc1Nc1ccc(C2CCN(C[C@@H]3CCN(c4ccc5c(c4)C(=O)N(C4CCC(=O)NC4=O)C5=O)C3)CC2)cc1 (stereo partly drawn)",
    "Measurement Units": "nM",
    "Cmax": 42
  },
  {
    "Compound": "CN1CCN([C@H]2CCCN(c3cnc(C(N)=O)c(Nc4ccc(C5CCN(CC6CCN(c7ccc(C(=O)NC8CCC(=O)NC8=O)nc7)CC6)CC5)cc4)n3)C2)C1=O (stereo partly drawn)",
    "Measurement Units": "nM",
    "Cmax": 20
  }
]

API: the following record is the query input.
# Cmax (compound: CN1CCN([C@@H]2CCCN(c3cnc(C(N)=O)c(Nc4ccc(C5CCN(C[C@H]6CCN(c7ccc8c(c7)C(=O)N(C7CCC(=O)NC7=O)C8=O)C6)CC5)cc4)n3)C2)C1=O (stereo partly drawn) ) is 10.6

###

Here the recorded AUC is given for each entry.
# Assay: PK data for BTK CTMs (in vivo plasma concentrations)
# Protocol Conditions: Mouse Balb/c, 1 mg/kg IV
Answer format: numeric, µM·h implied, no suffix.

[
  {
    "Molecule": "CN1CCN([C@@H]2CCCN(c3cnc(C(N)=O)c(Nc4ccc(C5CCN(C6CN(c7ccc8c(c7)C(=O)N(C7CCC(=O)NC7=O)C8=O)C6)CC5)cc4)n3)C2)C1=O (stereo partly drawn) [Compound 53]",
    "Measurement Units": "µM·h",
    "AUC": 2.75
  }
]

Recorded AUC (molecule NC(=O)c1ncc(N2CCC[C@@H](N3CCOC3=O)C2)nc1Nc1ccc(C2CCN(C[C@H]3CCN(c4ccc5c(c4)C(=O)N(C4CCC(=O)NC4=O)C5=O)C3)CC2)cc1 (stereo partly drawn) [Compound 73] ): 0.6

NC(=O)c1ncc(N2CCCCC2)nc1Nc1ccc(C2CCN(C[C@@H]3CCN(c4ccc5c(c4)C(=O)N(C4CCC(=O)NC4=O)C5=O)C3)CC2)cc1 (stereo partly drawn) [Compound 149] yielded AUC of 4.5

Looking up CN1CCN([C@@H]2CCCN(c3cnc(C(N)=O)c(Nc4ccc(C5CN(C6CCN(c7ccc8c(c7)C(=O)N(C7CCC(=O)NC7=O)C8=O)CC6)C5)cc4)n3)C2)C1=O (stereo partly drawn) [Compound 37] , I see its AUC listed as 1.77

Just so you know, measured AUC for CN1CCN([C@@H]2CCCN(c3cnc(C(N)=O)c(Nc4ccc(C5CN(CC6CCN(c7ccc8c(=O)n(C9CCC(=O)NC9=O)ccc8c7)CC6)C5)cc4)n3)C2)C1=O (stereo partly drawn) [Compound 69] came out at 0.68

# AUC of CN1CCN([C@@H]2CCCN(c3cnc(C(N)=O)c(Nc4ccc(C5CCN(C[C@H]6CCN(c7ccc8c(c7)C(=O)N(C7CCC(=O)NC7=O)C8=O)C6)CC5)cc4)n3)C2)C1=O (stereo partly drawn) [Compound 44] = 4.07

CN1CCN([C@@H]2CCCN(c3cnc(C(N)=O)c(Nc4ccc(C5CCN(CC6CCN(c7ccc8c(=O)n(C9CCC(=O)NC9=O)ccc8c7)CC6)CC5)cc4)n3)C2)C1=O (stereo partly drawn) [Compound 72] has a reported AUC of 3.96

Form: molecule = CN1CCN([C@H]2CCCN(c3cnc(C(N)=O)c(Nc4ccc(C5CCN(CC6CCN(c7ccc(C(=O)NC8CCC(=O)NC8=O)nc7)CC6)CC5)cc4)n3)C2)C1=O (stereo partly drawn) [Compound 130] ; AUC = 3.4

Query CN1CCN([C@H]2CCCN(c3cnc(C(N)=O)c(Nc4cnn(C5CCN(CC6CCN(c7ccc8c(c7)C(=O)N(C7CCC(=O)NC7=O)C8=O)CC6)CC5)c4)n3)C2)C1=O (stereo partly drawn) [Compound 83] yields AUC of 0.29

Item: CN1CCN([C@@H]2CCCN(c3cnc(C(N)=O)c(Nc4ccc(N5CCC6(CC5)CCN(c5ccc7c(c5)C(=O)N(C5CCC(=O)NC5=O)C7=O)CC6)cc4)n3)C2)C1=O (stereo partly drawn) [Compound 55] | AUC: 8.64

Per the records, this molecule ( CN1CCN([C@@H]2CCCN(c3cnc(C(N)=O)c(Nc4ccc(C5CCN(C6CN(Cc7ccc8c(c7)CN(C7CCC(=O)NC7=O)C8=O)C6)CC5)cc4)n3)C2)C1=O (stereo partly drawn) [Compound 86] ) has AUC equal to 0.5

Documented AUC of CN1CCN([C@@H]2CCCN(c3cnc(C(N)=O)c(Nc4ccc(C5CCN(CC6CCN(c7ccc(-c8nn(C9CCC(=O)NC9=O)c(=O)n8C)cc7)CC6)CC5)cc4)n3)C2)C1=O (stereo partly drawn) [Compound 121] : 2.87
